Below is a list of entries, each paired with its recorded yeast fitness (ln) value.
B1: tRNA (parent)
chain: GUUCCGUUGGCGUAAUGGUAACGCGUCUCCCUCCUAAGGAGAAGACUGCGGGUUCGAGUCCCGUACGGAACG

Variants of: B1
Assay: yeast fitness, log relative to wild type (ln ratio); higher = fitter; tRNA-Arg(CCU), competitive growth, 37 C, 1 M NaCl
Please reply with the number alone, leaving off any unit.

Observe how each entry below is paired with its result.
U2C G6A C46U    -0.0163
G1A U2C G6U C27U C46U A69G A70G C71U    -0.272
G6U C27U C66U A69G A70U C71U    -0.416
U2G G6A A43C A70U    -0.14

Incoming: Look up yeast fitness (ln): G6U C27U C66U A70G C71U
Outgoing: -0.37

Incoming: Please give the result for G1A C46U C66U A70U too.
Outgoing: -0.201

Incoming: Please give the result for U2C C27U A43C C46U A69G A70U too.
Outgoing: -0.169

Incoming: Please give the result for U2C G6U C27U C46U C66A A70U too.
Outgoing: -0.29

Incoming: Please give the result for U2G C46U C66U A69G too.
Outgoing: -0.119

Incoming: Please give the result for G1A G6A C27U C46U A69G A70U too.
Outgoing: -0.24

Incoming: Please give the result for G1A U2C A43C C66A A70G C71U too.
Outgoing: -0.128

Incoming: Please give the result for G1A U2C G6U A69G A70G C71U too.
Outgoing: -0.367

Incoming: Please give the result for U2C C27U C66A A70U C71U too.
Outgoing: -0.222

Incoming: Please give the result for G1A U2C G6A C27U A43C C71U too.
Outgoing: -0.295

Incoming: Please give the result for G1A U2C C27U C46U C66A A69G A70G C71U too.
Outgoing: -0.294

Incoming: Please give the result for U2C A43C C46U A70U too.
Outgoing: -0.0182

Incoming: Please give the result for G1A G6A C27U A43C C66U A69G A70G C71U too.
Outgoing: -0.487

Incoming: Please give the result for G1A U2C G6U C27U A43C C46U A70G too.
Outgoing: -0.207

Incoming: Please give the result for U2G A43C A69G A70U C71U too.
Outgoing: -0.382

Incoming: Please give the result for U2G C71U too.
Outgoing: -0.0549

Incoming: Please give the result for U2G G6U A43C C66U A70U C71U too.
Outgoing: -0.464

Incoming: Please give the result for U2G G6A C66U A70U too.
Outgoing: 0.001

Incoming: Please give the result for U2C G6U C27U A43C C46U C66U A70G too.
Outgoing: -0.304

Incoming: Please give the result for G1A U2C G6A A43C C46U A70U C71U too.
Outgoing: -0.0375
